- Tested on: E. multilocularis metacestode vesicles
- assayDetails: Phosphoglucose isomerase (PGI) release assay (damage-marker release) on metacestode vesicles
- Format: cell-based, Echinococcus multilocularis
- testSettings: overview screen, 10 μM, singlets, 12 days, relative to 0.1 % Triton X-100, DMSO subtracted
Assignment: determine reported PGI d12 (relative PGI release) for the given molecules.
Quick note: give the figure in %, leave out the unit.

query: Requested read-out: PGI d12 (relative PGI release). Entry: CCCNc1ccc(S(=O)(=O)Nc2cc(C)on2)cc1
result: -24.1037

query: Value lookup for PGI d12 (relative PGI release); key = CC(C)(C)c1ccc(C(=O)NC(=O)N2CCCc3ccccc32)cc1
result: -24.6748

query: Recorded PGI d12 (relative PGI release) of O=C(O)c1sccc1S(=O)(=O)n1ccc2cc(Br)ccc21 , please.
result: 35.1913

query: # lookup: PGI d12 (relative PGI release) of CCc1nc2ccccn2c1C(=O)NCc1ccccc1
result: -12.7903

query: What does the data say about its PGI d12 (relative PGI release)? Entry: Cc1cccc(C)c1C(=O)Nc1nc(-c2ccccn2)cc2ccccc12
result: 3.408

query: Query (molecule): CCC(C)(C)c1ccc(CC(C)CN2C[C@@H](C)O[C@@H](C)C2)cc1.Cl (stereo partly shown) ; field requested: PGI d12 (relative PGI release)
result: -20.4097

query: For the molecule shown here, O=C(Nc1nnc(-c2ccccc2)o1)c1ccc(F)cc1 , give the reported PGI d12 (relative PGI release).
result: 45.2443

query: // returns reported PGI d12 (relative PGI release) for input COC(=O)Nc1nc2cc(Sc3ccccc3)ccc2[nH]1
result: 9.38

query: Which measured PGI d12 (relative PGI release) value corresponds to CC(C)(C)c1ccc(Oc2ccc(N)cc2)cc1 ?
result: 16.4911

query: For Cc1ncc([N+](=O)[O-])n1CC(O)CN1CCOCC1 (stereo not shown) , what is its reported PGI d12 (relative PGI release)?
result: -6.037

query: Quick check: PGI d12 (relative PGI release) of N=c1n(CCN2CCCCC2)c2ccccc2n1CC(O)COc1ccc(Cl)cc1Cl (stereo not shown) ?
result: 70.607

query: GET /values?readout=PGI d12 (relative PGI release)&item= CC[N+]1(C/C2=C/CCCCCC2)CCC(NC(=O)C2c3cc(Cl)ccc3Oc3ccc(Cl)cc32)CC1.[I-] (stereo not shown)
result: -2.113

query: Field request: PGI d12 (relative PGI release) | item: Cc1oncc1C(=O)Nc1ccc(C(F)(F)F)cc1
result: -17.479

query: Form field: reported PGI d12 (relative PGI release) of CCOC(=O)N[C@@H]1CC[C@@H]2[C@@H](C1)C[C@H]1C(=O)O[C@H](C)[C@H]1[C@H]2/C=C/c1ccc(-c2cccc(F)c2)cn1
result: -17.1599

query: Could you tell me which PGI d12 (relative PGI release) is on file for O=C1NC(=O)C(Br)=C1Br ?
result: 5.51

query: Given the entry O=C(O)c1cc(-c2ccc(Br)cc2)nc2ccc(Cl)cc12 , report its measured PGI d12 (relative PGI release).
result: -0.4305

query: Look up PGI d12 (relative PGI release): Oc1cccc(C(Nc2nccs2)c2ccc3cccnc3c2O)c1 (stereo not shown)
result: 88.2133

query: I'd like to know its PGI d12 (relative PGI release). The molecule in question is O=C(NC12CC3CC(CC(C3)C1)C2)c1cc2ccccc2[nH]1
result: -2.179

query: If you can, please state the reported PGI d12 (relative PGI release) value of Nc1nc(Nc2ccc3nc(-c4ccc(F)cc4)cc(N)c3c2)cc(-c2ccccc2)n1 .
result: -2.81

---

- Tested on: E. multilocularis metacestode vesicles
- assayDetails: Phosphoglucose isomerase (PGI) release assay (damage-marker release) on metacestode vesicles
- Type: cell-based, Echinococcus multilocularis
- testSettings: confirmation screen, 10 μM, triplicates, mean, 5 days
Field: PGI d5 (relative PGI release). Provide a value for each of the compounds that follow.
Numbers only; they are read as %.

query: Can you share its PGI d5 (relative PGI release)? I mean this compound: CCC[C@@H]1C[C@@H](C(=O)N[C@@H]([C@H]2O[C@H](SC)[C@H](O)[C@@H](O)[C@H]2O)[C@H](C)Cl)N(C)C1.Cl
result: 0.38

query: For CC(C)N=c1cc2n(-c3ccc(Cl)cc3)c3ccccc3nc-2cc1Nc1ccc(Cl)cc1 , what is its reported PGI d5 (relative PGI release)?
result: 0.81

query: For the compound c1ccc(Cn2c(-c3ccccn3)nc3ccccc32)cc1 , what PGI d5 (relative PGI release) is on record?
result: -0.18

query: Item N=c1n(CCN2CCCCC2)c2ccccc2n1CC(O)COc1ccc(Cl)cc1Cl (stereo not shown) has what recorded PGI d5 (relative PGI release)?
result: 0.57

query: Given CCc1cc(Cc2cnc(N)nc2N)cc2c1N(C)CCC2C (stereo not shown) , state its recorded PGI d5 (relative PGI release).
result: 0.0536

query: Consider the compound Cc1c(CN(C)C(=O)/C=C/c2cnc3c(c2)C(C)(C)C(=O)N3)oc2ccccc12 and give its measured PGI d5 (relative PGI release).
result: -0.0109

query: Form field: reported PGI d5 (relative PGI release) of Fc1ccc(-c2nc(-c3c[nH]c4ccc(Br)cc34)[nH]c2-c2ccc(F)cc2)cc1
result: 0.49

---

- System: E. multilocularis metacestode vesicles
- assayDetails: Phosphoglucose isomerase (PGI) release assay (damage-marker release) on metacestode vesicles
- Assay type: cell-based, Echinococcus multilocularis
- testSettings: overview screen, 10 μM, singlets, 5 days, relative to 0.1 % Triton X-100, DMSO subtracted
- Protocol: In order to quantify the drug-induced damage on whole metacestode vesicles, phosphoglucose isomerase (PGI) assay was performed as described previously ([Stadelmann et al., 2010]) with few adaptations published recently ([Kaethner et al., 2023]). […] PGI activity in the supernatants was measured on a HIDEX Sense microplate reader (Hidex, Turku, Finland). […] IC50 values were calculated applying the 3 parameter Weibull type 1 in R for each of the three independent experiments ([Ritler et al., 2020]).
Exercise: state measured PGI d5 (relative PGI release) for each of the compounds provided.
Record the value in %, omitting the unit from your answer.

query: Reported PGI d5 (relative PGI release), compound Clc1cccc(-c2nnc(-c3ccccc3)o2)c1 : ____
result: -1.462

query: Item under review: O=c1[nH]cnc2c1ncn2[C@H]1CC[C@@H](CO)O1 . Reported PGI d5 (relative PGI release)?
result: -0.8027

query: Fill blank: measured PGI d5 (relative PGI release) of the compound O=C(Nc1ccc(-c2ccccc2)cc1)C1=C(O)C(Cc2ccccc2)OC1=O (stereo not drawn) is ____.
result: 4.793

query: # PGI d5 (relative PGI release) lookup, item CC(=O)N[C@H](C)C(=O)N[C@H](Cc1ccccc1)C(=O)O
result: 0.2541

query: Which PGI d5 (relative PGI release) reading was recorded for the compound CC(=O)Oc1ccccc1C(=O)Nc1ncc([N+](=O)[O-])s1 [nitazoxanide, reference compound] ?
result: 37.9028

query: Request the reported PGI d5 (relative PGI release) associated with COc1ccc(-n2cnc3cc(NCc4ccco4)ccc32)cc1
result: 0.2921

query: Could you tell me which PGI d5 (relative PGI release) is on file for Cc1c(N)cccc1Cn1ccc(OCCc2cccs2)cc1=O ?
result: -0.9531

query: Recorded PGI d5 (relative PGI release) for Nc1nc2c(ncn2/C=C2/CC2(CO)CO)c(=O)[nH]1 , please?
result: 0.1371

query: Query (compound): OC1O[C@H](CSc2ccc(F)cc2)[C@@H](O)[C@H]1O (stereo partly drawn) ; field requested: PGI d5 (relative PGI release)
result: -2.303

---

- Tested on: E. multilocularis metacestode vesicles
- assayDetails: Phosphoglucose isomerase (PGI) release assay (damage-marker release) on metacestode vesicles
- Format: cell-based, Echinococcus multilocularis
- testSettings: overview screen, 10 μM, singlets, 12 days, relative to 0.1 % Triton X-100, DMSO subtracted
Provide the reported PGI d12 (relative PGI release) of each item.
Remember to quote the unit after the number.

query: // map Fc1ccc(-n2cc(Cn3c(-c4cccc(F)c4)nc4ccccc43)nn2)cc1 to recorded PGI d12 (relative PGI release) (system: E. multilocularis metacestode vesicles)
result: -24.0097%

query: Record O=C(NCc1ccc2c3c(cccc13)C(=O)N2)c1cccs1 : what is its PGI d12 (relative PGI release) with E. multilocularis metacestode vesicles?
result: -12.533%

query: Write down the reported PGI d12 (relative PGI release) of O=[N+]([O-])c1ccc2c(CCc3c[nH]c4ccccc34)c[nH]c2c1 , test system: E. multilocularis metacestode vesicles.
result: 90.6206%

query: # query: PGI d12 (relative PGI release) | item O=C(NCc1ccc(F)cc1)c1c(O)c2ncccc2[nH]c1=O | system: E. multilocularis metacestode vesicles
result: -0.6563%

query: Recall the recorded PGI d12 (relative PGI release) for CCOc1ccc(C(=O)NCCc2ccccc2)cc1 with E. multilocularis metacestode vesicles and state it.
result: 10.9951%

query: Notebook entry, E. multilocularis metacestode vesicles assay: PGI d12 (relative PGI release) of O=C(Nc1ccc(N2CCN(C(=O)c3ccccc3)CC2)cc1)c1ccc2c(c1)OCO2 = ?
result: -0.2928%

query: Under E. multilocularis metacestode vesicles: PGI d12 (relative PGI release) value of CO/N=C(\C(=O)N[C@@H]1C(=O)N2C(C(=O)OCOC(=O)C(C)(C)C)=C(/C=C\c3scnc3C)CS[C@H]12)c1csc(N)n1 ?
result: -11.7788%

query: Record lookup: for E. multilocularis metacestode vesicles, what PGI d12 (relative PGI release) belongs to OCCC#Cc1nc(-c2ccc(F)cc2)c(-c2ccncc2)n1CCCc1ccccc1 ?
result: -17.1938%

query: Notebook: pull reported PGI d12 (relative PGI release) for E. multilocularis metacestode vesicles, entry CC(C)(C)NC(=O)[C@@H]1CN(Cc2cnc3occc3c2)CCN1C[C@@H](O)C[C@@H](Cc1ccccc1)C(=O)N[C@H]1c2ccccc2C[C@H]1O
result: -0.3369%

query: Identify the measured PGI d12 (relative PGI release) of Cc1cc(Nc2ccc(F)cc2)nc(SCc2nc3ccccc3[nH]2)n1 for E. multilocularis metacestode vesicles.
result: 1.096%

query: API: value(readout= PGI d12 (relative PGI release), system= E. multilocularis metacestode vesicles, query= COc1ccc(SCC(=O)N2c3ccccc3Sc3ccccc32)cc1 )
result: -10.5042%

query: What is its PGI d12 (relative PGI release) for E. multilocularis metacestode vesicles? Entry: CC(C)(C)c1cc(CCC(=O)N2CCC2)cc(C(C)(C)C)c1O
result: -10.8726%

query: State its PGI d12 (relative PGI release) on E. multilocularis metacestode vesicles: COc1ccc(COc2cc3oc(=O)c4cc(C(C)O)ccc4c3cc2OC)cc1 (stereo not drawn)
result: -19.4753%

query: For the record CCNC(=O)Nc1cn2c(-c3ncc(CC)cn3)cc(-c3cccnc3)cc2n1 , what value of PGI d12 (relative PGI release) is listed for E. multilocularis metacestode vesicles?
result: 16.0574%

query: Lookup: PGI d12 (relative PGI release) / E. multilocularis metacestode vesicles / O=C1c2cccc3cccc(c23)C(=O)N1CC1CO1 (stereo not drawn)
result: 17.7299%

query: Request: PGI d12 (relative PGI release), test system E. multilocularis metacestode vesicles, entry O=C(O)C[C@H]1CC[C@H](c2ccc(-c3ccc(Nc4ccc(C(F)(F)F)nc4)cn3)cc2)CC1
result: 1.035%

query: Please provide the recorded PGI d12 (relative PGI release) for NCc1ccc(S(N)(=O)=O)cc1 , tested on E. multilocularis metacestode vesicles.
result: -5.499%

query: Item: O=C(/C(=C/c1ccc(Cl)cc1Cl)n1ccnc1)c1ccc(Cl)cc1 Test system: E. multilocularis metacestode vesicles Read-out: PGI d12 (relative PGI release) Value: ?
result: 25.566%
